tested on: rabbit progesterone receptor (rbPR) and glucocorticoid receptor (rbGR); assay: Receptor-binding assays, ratio of relative binding affinities rbPR/rbGR; settings: ratio of relative binding affinities (RBA = EC50 of standard/EC50 of test compound x 100) for rbPR and rbGR
measure: rbPR/rbGR
Answer with a bare number; do not write a unit.

Inquiry: Give its rbPR/rbGR value. Item: COCC(=O)C1(OC(C)=O)CCC2C3CCC4=CC(=NO)CCC4=C3C(c3ccc(N(C)C)cc3)C[C@@]21C (stereo partly shown)
Reply text: 1.99

Inquiry: Give its rbPR/rbGR value. Item: CC(=O)O[C@]1(C(=O)CSC(C)=O)CCC2C3CCC4=C(C(=O)c5ccccc5)C(=O)CCC4=C3C(c3ccc(N(C)C)cc3)C[C@@]21C (stereo partly shown)
Reply text: 2.60

Inquiry: Give its rbPR/rbGR value. Item: CC(=O)O[C@]1(C2COC(C)(C)O2)CCC2C3CCC4=CC(=O)CCC4=C3C(c3ccc(N(C)C)cc3)C[C@@]21C (stereo partly shown)
Reply text: 0.70

Inquiry: Give its rbPR/rbGR value. Item: CC(=O)O[C@]1(C(=O)CBr)CCC2C3CCC4=CC(=O)CCC4=C3C(c3ccc(N(C)C)cc3)C[C@@]21C (stereo partly shown)
Reply text: 0.69

Inquiry: Give its rbPR/rbGR value. Item: CCC(=O)[C@@]1(OC(C)=O)CCC2C3CCC4=CC(=O)CCC4=C3C(c3ccc(N(C)C)cc3)C[C@@]21C (stereo partly shown)
Reply text: 0.96

Inquiry: Give its rbPR/rbGR value. Item: CC(=O)O[C@]1(C(=O)CF)CCC2C3CCC4=CC(=O)CCC4=C3C(c3ccc(N(C)C)cc3)C[C@@]21C (stereo partly shown)
Reply text: 1.08

Inquiry: Give its rbPR/rbGR value. Item: CC(=O)OCC(=O)C1(OC(C)=O)CCC2C3CCC4=CC(=NO)CCC4=C3C(c3ccc(N(C)C)cc3)C[C@@]21C (stereo partly shown)
Reply text: 1.44

Inquiry: Give its rbPR/rbGR value. Item: CCOCC(=O)[C@@]1(OC(C)=O)CCC2C3CCC4=CC(=O)CCC4=C3C(c3ccc(N(C)C)cc3)C[C@@]21C (stereo partly shown)
Reply text: 1.69

Inquiry: Give its rbPR/rbGR value. Item: CC(=O)O[C@]1(C(=O)CO)CCC2C3CCC4=CC(=O)CCC4=C3C(c3ccc(N(C)C)cc3)C[C@@]21C (stereo partly shown)
Reply text: 0.82

Inquiry: Give its rbPR/rbGR value. Item: COCC(=O)[C@@]1(OC(C)=O)CCC2C3CCC4=C(C(=O)c5ccccc5)C(=O)CCC4=C3C(c3ccc(N(C)C)cc3)C[C@@]21C (stereo partly shown)
Reply text: 14.80

* * *

Please go through the items and note down their rbPR/rbGR.
Tested on: rabbit progesterone receptor (rbPR) and glucocorticoid receptor (rbGR)
Test: Receptor-binding assays, ratio of relative binding affinities rbPR/rbGR
Conditions: ratio of relative binding affinities (RBA = EC50 of standard/EC50 of test compound x 100) for rbPR and rbGR
Procedure: Certain antiprogestins were tested in receptor-binding assays for their ability to bind rabbit progesterone receptor (rbPR) and glucocorticoid receptor (rbGR). […] Supernatants containing the [3H]-steroid receptor complexes were decanted into vials containing 4 ml Optifluor (Packard Instrument Co.), vortexed, equilibrated in a liquid scintillation counter for 30 minutes and then counted for 2 minutes. […]
Answer with a bare number; do not write a unit.

Inquiry: Give its rbPR/rbGR value. Item: CCOCC(=O)C1(OC(C)=O)CCC2C3CCC4=CC(=NO)CCC4=C3C(c3ccc(N(C)C)cc3)C[C@@]21C (stereo partly shown)
Reply text: 1.51

Inquiry: Give its rbPR/rbGR value. Item: CC(=O)O[C@]1(C(=O)CSC#N)CCC2C3CCC4=CC(=O)CCC4=C3C(c3ccc(N(C)C)cc3)C[C@@]21C (stereo partly shown)
Reply text: 4.21

Inquiry: Give its rbPR/rbGR value. Item: CCC(=O)OCC(=O)[C@@]1(OC(C)=O)CCC2C3CCC4=CC(=O)CCC4=C3C(c3ccc(N(C)C)cc3)C[C@@]21C (stereo partly shown)
Reply text: 2.06

Inquiry: Give its rbPR/rbGR value. Item: CC(=O)O[C@]1(C(=O)C[S+](C)[O-])CCC2C3CCC4=CC(=O)CCC4=C3C(c3ccc(N(C)C)cc3)C[C@@]21C (stereo partly shown)
Reply text: 0.61
